Here, molecules appear alongside IC50 reported for 5-hydroxytryptamine receptor 2A (Rattus norvegicus) in the literature.
Form entry: value (nM) — number only.

molecule	IC50 [nM]
CN1CCN(C2CC(c3ccc(Cl)cc3)c3ccc(Cl)cc32)CC1(C)C (stereo not drawn)	32
FC(F)(F)c1ccc(N2CCN(Cc3cn(-c4ccccc4)c(-c4ccccc4)n3)CC2)cc1	1510
COc1ccccc1N1CCN(Cc2cn(-c3ccccc3)c(-c3ccccc3)n2)CC1	131
COc1ccc2c(c1)CCCC2CCCN1CCN(c2ccccc2)CC1 (stereo not drawn)	160

Observed IC50, 5-hydroxytryptamine receptor 2A (Rattus norvegicus), CN(C)CCc1coc2ccc(C(N)=O)cc12 : 3390

Observed IC50, 5-hydroxytryptamine receptor 2A (Rattus norvegicus), CN(C)CCCSc1ccccc1NC(=O)/C=C/c1ccccc1 : 14.8

* * *

Here, compounds appear alongside log10 of IC50 reported for 5-hydroxytryptamine receptor 2A (Rattus norvegicus, UniProt P14842) in the literature.
Transform log10 | Measure IC50 | Unit nM

compound	log10 of IC50
CN(CCN1CCC(c2noc3cc(F)ccc23)CC1)C(=O)c1nsc2ccccc12	1.52
COc1cccc2c1CCCC2CCN1CCN(c2ccccc2)CC1 (stereo not given)	1.08
O=C(NCCN1CCC(c2noc3cc(Cl)ccc23)CC1)c1nsc2ccccc12	2.33
Nn1c(CCCCN2CCN(c3ccc4ccccc4n3)CC2)nc2c(c1=O)CCCC2	2.00
CN(CCCN1CCC(C(=O)c2ccc(F)cc2)CC1)C(=O)c1nsc2ccccc12	1.83

Observed log10 of IC50, 5-hydroxytryptamine receptor 2A (Rattus norvegicus, UniProt P14842), CN1CCN(C2=Nc3ccccc3Nc3ccc(OS(=O)(=O)C(F)(F)F)cc32)CC1 : 1.63

Observed log10 of IC50, 5-hydroxytryptamine receptor 2A (Rattus norvegicus, UniProt P14842), Fc1ccc(N2CCN(Cc3cn(-c4ccccc4)c(-c4ccccc4)n3)CC2)cc1 : 2.70

* * *

Here, compounds appear alongside pIC50 reported for 5-hydroxytryptamine receptor 2A (Rattus norvegicus, UniProt P14842) in the literature.
By convention, pIC50 is the negative base-10 log of a molar concentration.

itemSmiles	pIC50
Clc1ccccc1N1CCN(Cc2cn(-c3ccccc3)c(-c3ccccc3)n2)CC1	6.85
FC(F)(F)c1cccc(N2CCN(Cc3cn(-c4ccccc4)c(-c4ccccc4)n3)CC2)c1	5.67
COc1cccc2c1CCC(CCN1CCN(c3ccccc3)CC1)=C2	6.62
O=C(NCCN1CCC(C(=O)c2ccc(F)cc2)CC1)c1nsc2ccccc12	7.77
CN1CCN(C2=Nc3cc(OS(C)(=O)=O)ccc3Nc3ccccc32)CC1	5.31

// next item, pIC50 requested
Short answer for N#Cc1ccc2[nH]cc(CCCCN3CCN(c4ccc5oc(C(N)=O)cc5c4)CC3)c2c1 : pIC50 was 5.82

* * *

Here, compounds appear alongside IC50 reported for 5-hydroxytryptamine receptor 2A (Rattus norvegicus, UniProt P14842) in the literature.
Response field label takes label 1 when IC50 is strictly below 30 nM and label 0 in all other cases.

As a guide, the following entries are already answered.
compound	cat
FC(F)(F)c1cccc(OC(c2ccccc2)C2CCNCC2)c1 (centres undefined)	label 0
CN(CCCCN1CCC(c2noc3cc(F)ccc23)CC1)C(=O)c1nsc2ccccc12	label 1
Fc1ccc(C(Oc2ccccc2)C2CCCNC2)cc1 (centres undefined)	label 0
c1ccc(C(Oc2cccc3ccccc23)C2CCNCC2)cc1 (single isomer, unassigned; (+))	label 0

// query Bench note: check whether Fc1ccccc1N1CCN(Cc2cn(-c3ccccc3)c(-c3ccccc3)n2)CC1 shows IC50 below 30 nM
// result label 1

// query Bench note: check whether Fc1ccc(-c2nc(CN3CCN(c4ccccc4)CC3)cn2-c2ccc(F)cc2)cc1 shows IC50 below 30 nM
// result label 0

// query Bench note: check whether Oc1ccc(OC(c2ccccc2)C2CCNCC2)cc1F (centres undefined) shows IC50 below 30 nM
// result label 0
